measurement-notes: Extraction ratio in rat liver microsomes measured up to 90 mins by HPLC/MS/MS analysis
Format: ADME, microsome
measurement-parameters: read-out: ERH
experimental-endpoint: hepatic extraction ratio at 1.5 h
Respond using a number only.

compound: C[C@@H](c1ccccc1)n1c(O)nc2ncc(Br)nc21
hepatic extraction ratio at 1.5 h: 0.5
--
compound: CCC(CC)n1c(O)nc2ncc(C(F)(F)F)nc21
hepatic extraction ratio at 1.5 h: 0.2

Inquiry: Consider the compound `CC(C)(C)n1c(O)nc2ncc(Br)nc21` and give its measured hepatic extraction ratio at 1.5 h.
Reply text: 0.3

----------
measurement-notes: Extraction ratio in mouse liver microsomes measured up to 90 mins by HPLC/MS/MS analysis
Type: ADME, microsome
measurement-parameters: read-out: ERH
experimental-endpoint: hepatic extraction ratio at 1.5 h

Inquiry: Consider the compound `C#Cc1cnc2nc(O)n(C(CC)CC)c2n1` and give its measured hepatic extraction ratio at 1.5 h.
Reply text: 0.24
